test target: mouse TRPM7 (Mus musculus, UniProt Q923J1)
Construct: expressed in transfected cells; host or cells: HEK 293T cells (CRL-3216; ATCC), transient transfection with jetOPTIMUS, co-transfected eGFP as a separate plasmid
Sequence (Q923J1 whole entry): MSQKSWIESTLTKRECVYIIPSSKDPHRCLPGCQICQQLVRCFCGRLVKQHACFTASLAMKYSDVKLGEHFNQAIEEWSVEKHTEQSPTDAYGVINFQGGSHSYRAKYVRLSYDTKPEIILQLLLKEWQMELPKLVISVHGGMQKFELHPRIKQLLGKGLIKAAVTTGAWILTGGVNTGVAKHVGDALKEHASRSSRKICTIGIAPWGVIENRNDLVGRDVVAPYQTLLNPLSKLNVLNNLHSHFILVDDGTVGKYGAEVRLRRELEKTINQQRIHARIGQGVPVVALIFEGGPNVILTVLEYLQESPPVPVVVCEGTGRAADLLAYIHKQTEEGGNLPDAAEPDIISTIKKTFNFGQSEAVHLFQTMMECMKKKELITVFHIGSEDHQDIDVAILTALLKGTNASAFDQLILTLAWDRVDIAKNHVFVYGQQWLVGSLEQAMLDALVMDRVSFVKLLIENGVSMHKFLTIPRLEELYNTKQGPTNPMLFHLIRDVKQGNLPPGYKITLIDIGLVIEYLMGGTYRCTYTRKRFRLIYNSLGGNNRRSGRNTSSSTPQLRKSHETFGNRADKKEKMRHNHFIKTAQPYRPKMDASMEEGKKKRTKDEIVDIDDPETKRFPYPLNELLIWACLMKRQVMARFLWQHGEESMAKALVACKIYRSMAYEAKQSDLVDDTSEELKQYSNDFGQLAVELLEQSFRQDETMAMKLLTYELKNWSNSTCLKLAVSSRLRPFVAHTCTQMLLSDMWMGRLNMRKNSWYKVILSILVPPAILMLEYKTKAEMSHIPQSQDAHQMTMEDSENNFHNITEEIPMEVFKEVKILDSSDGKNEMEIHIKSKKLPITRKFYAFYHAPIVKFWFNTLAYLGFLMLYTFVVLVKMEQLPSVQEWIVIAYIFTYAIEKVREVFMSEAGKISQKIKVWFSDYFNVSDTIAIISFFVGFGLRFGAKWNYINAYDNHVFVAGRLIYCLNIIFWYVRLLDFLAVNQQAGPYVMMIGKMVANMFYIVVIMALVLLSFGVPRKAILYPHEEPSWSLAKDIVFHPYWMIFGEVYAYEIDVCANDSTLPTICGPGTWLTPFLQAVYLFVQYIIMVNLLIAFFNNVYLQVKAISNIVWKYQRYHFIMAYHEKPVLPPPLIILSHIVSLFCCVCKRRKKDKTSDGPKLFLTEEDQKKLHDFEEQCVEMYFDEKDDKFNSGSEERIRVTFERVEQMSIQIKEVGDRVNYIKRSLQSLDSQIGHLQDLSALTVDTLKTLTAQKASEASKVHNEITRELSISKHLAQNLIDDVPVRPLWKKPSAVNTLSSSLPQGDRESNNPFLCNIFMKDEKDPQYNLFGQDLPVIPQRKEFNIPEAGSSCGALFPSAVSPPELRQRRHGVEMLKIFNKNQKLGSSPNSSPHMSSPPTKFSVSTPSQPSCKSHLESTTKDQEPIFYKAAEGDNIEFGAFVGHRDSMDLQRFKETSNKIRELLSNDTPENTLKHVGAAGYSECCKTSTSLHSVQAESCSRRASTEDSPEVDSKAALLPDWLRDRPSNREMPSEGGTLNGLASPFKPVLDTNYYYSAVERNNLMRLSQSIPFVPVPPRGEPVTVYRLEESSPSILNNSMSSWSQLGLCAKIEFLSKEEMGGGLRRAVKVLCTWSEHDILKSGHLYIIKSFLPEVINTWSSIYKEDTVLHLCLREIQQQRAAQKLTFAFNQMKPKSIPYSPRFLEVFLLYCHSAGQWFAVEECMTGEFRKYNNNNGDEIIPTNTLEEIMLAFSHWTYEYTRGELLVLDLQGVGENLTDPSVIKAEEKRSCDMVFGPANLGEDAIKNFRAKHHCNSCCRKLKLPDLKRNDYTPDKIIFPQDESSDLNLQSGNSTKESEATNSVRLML
assay explanation: Whole-cell patch clamp of TRPM7 current (IM7) in HEK 293T cells overexpressing mouse TRPM7
Type: cell-based
metric name: IC50 (µM)

CCCCCCCOc1ccc(CC[C@](C)(N)CO)cc1 : 1.08

----------
assay explanation: Whole-blood, brain and lung drug levels by LC-MS/MS in the sublethal LPS peritonitis model
Assay type: in vivo
recorded conditions: both sexes, C57BL/6J, mouse, lung / whole blood, intraperitoneal, 30 mg/kg, 30 mg/kg i.p., VPC4 group, read-out: Mean lung level relative to mean blood level
metric name: Kp at 4 h

CCCCCCCCc1ccc([C@@H]2CC[C@@](N)(CO)C2)cc1 [VPC01091.4] : 31.1

----------
assay explanation: Whole-blood, brain and lung drug levels by LC-MS/MS in the sublethal LPS peritonitis model
Type: in vivo
recorded conditions: both sexes, C57BL/6J, mouse, lung, intraperitoneal, 30 mg/kg i.p., VPC4 group, read-out: Mean lung concentration
metric name: concentration at 4 h (µM)

CCCCCCCCc1ccc([C@@H]2CC[C@@](N)(CO)C2)cc1 : 490

----------
assay explanation: Whole-blood, brain and lung drug levels by LC-MS/MS in the sublethal LPS peritonitis model
Assay type: in vivo
recorded conditions: both sexes, C57BL/6J, mouse, lung / whole blood, intraperitoneal, 30 mg/kg i.p., VPC4 + LPS group, read-out: Mean lung level relative to mean blood level
Procedure: 12-wk-old WT C57BL/6J mice were purchased from Jackson Laboratory (Strain #000664). An equal number of male and female mice were randomly assigned to each treatment group. […] Plasma cytokines were then measured using a multiplex mouse proinflammatory cytokine panel performed by the University of Virginia Flow Cytometry Core (RRID: SCR_017829). […] Whole-tissue cytokine expression changes were then measured using qRT-PCR as with ex vivo cell culture experiments. […]
metric name: Kp at 4 h

CCCCCCCCc1ccc([C@@H]2CC[C@@](N)(CO)C2)cc1 : 33.2
